- procedureDetails: Metabolic stability in Sprague-Dawley plasma assessed as unchanged drug level at 37 MBq/0.1 mL, iv after 15 mins
- Assay type: ADME, organism-based
- assaySetup: rat, read-out: Stability
measurementType: remaining at 0.25 h
Write the figure, then the unit, nothing else.

Param item = CC(C)Nc1cc(-c2csc(N(C)C(=O)c3ccc([14CH3])cc3)n2)ncn1 ; retrieve measured remaining at 0.25 h. 47.6%

* * *

- procedureDetails: Metabolic stability in Sprague-Dawley plasma assessed as unchanged drug level at 37 MBq/0.1 mL, iv after 5 mins
- Format: ADME, organism-based
- assaySetup: rat, read-out: Stability
measurementType: remaining at 5 min (%)
Please respond with the number in % and leave the unit unwritten.

Param item = CC(C)Nc1cc(-c2csc(N(C)C(=O)c3ccc([14CH3])cc3)n2)ncn1 ; retrieve measured remaining at 5 min. 67.9

* * *

- procedureDetails: Lipophilicity, log D of the compound by shake flask method
- Assay type: physicochemical
- assaySetup: octanol/water
measurementType: logD
Please give the numeric answer without any surrounding text.

Param item = Cc1ccc(C(=O)N(C)c2nc(-c3cc(NC(C)C)ncn3)cs2)cc1 ; retrieve measured logD. 1.74

* * *

- procedureDetails: Metabolic stability in monkey plasma assessed as unchanged drug level at 185 MBq/0.1 mL, iv after 5 mins
- Format: ADME, organism-based, Macaca mulatta
- assaySetup: rhesus monkey, read-out: Stability
measurementType: remaining at 5 min (%)
Please respond with the number in % and leave the unit unwritten.

Param item = CC(C)Nc1cc(-c2csc(N(C)C(=O)c3ccc([14CH3])cc3)n2)ncn1 ; retrieve measured remaining at 5 min. 70.2

* * *

- procedureDetails: Metabolic stability in monkey plasma assessed as unchanged drug level at 185 MBq/0.1 mL, iv after 30 mins
- Format: ADME, organism-based, Macaca mulatta
- assaySetup: rhesus monkey, read-out: Stability
measurementType: remaining at 0.5 h
Write the figure, then the unit, nothing else.

Param item = CC(C)Nc1cc(-c2csc(N(C)C(=O)c3ccc([14CH3])cc3)n2)ncn1 ; retrieve measured remaining at 0.5 h. 35.8%

* * *

- procedureDetails: Metabolic stability in Sprague-Dawley brain assessed as unchanged drug level at 37 MBq/0.1 mL, iv after 15 mins
- Format: ADME, organism-based
- assaySetup: rat, read-out: Stability
measurementType: remaining at 0.25 h

Param item = CC(C)Nc1cc(-c2csc(N(C)C(=O)c3ccc([14CH3])cc3)n2)ncn1 ; retrieve measured remaining at 0.25 h. 95.2%

* * *

- procedureDetails: Metabolic stability in monkey plasma assessed as unchanged drug level at 185 MBq/0.1 mL, iv after 60 mins
- Assay type: ADME, organism-based, Macaca mulatta
- assaySetup: rhesus monkey, read-out: Stability
measurementType: remaining at 1 h (%)
Please respond with the number in % and leave the unit unwritten.

Param item = CC(C)Nc1cc(-c2csc(N(C)C(=O)c3ccc([14CH3])cc3)n2)ncn1 ; retrieve measured remaining at 1 h. 28.4
